The measured values listed here are drawn from ChEMBL document CHEMBL4811303.

System: Trypanosoma brucei rhodesiense
Assay: Trypanocidal activity against Trypanosoma brucei rhodesiense assessed as reduction in intracellular ATP production incubated for 72 hrs by CellTiter-Glo luminescent cell viability assay
Format: functional, organism-based
MEASURED_PARAMETER: pIC50
Please express pIC50 as -log10 of the molar concentration.

{"COMPOUND": "CC1CS(=O)(=O)CCN1/N=C/c1ccc([N+](=O)[O-])o1 (configuration not stated) [NIFURTIMOX]", "TESTED_SYSTEM": "Trypanosoma brucei rhodesiense", "OBS_VALUE": 5.36}
{"COMPOUND": "COc1ccccc1-c1nnc(-c2cccc(OC)c2OC)o1", "TESTED_SYSTEM": "Trypanosoma brucei rhodesiense", "OBS_VALUE": 4.87}
{"COMPOUND": "COc1cccc(-c2cnc(-c3cccc(OC)c3OC)o2)c1", "TESTED_SYSTEM": "Trypanosoma brucei rhodesiense", "OBS_VALUE": 4.12}
{"COMPOUND": "COc1ccccc1-c1cnc(-c2cccc(OC)c2OC)s1", "TESTED_SYSTEM": "Trypanosoma brucei rhodesiense", "OBS_VALUE": 4.53}
{"COMPOUND": "COc1ccc(-c2cnc(-c3cccc(OC)c3OC)o2)cc1", "TESTED_SYSTEM": "Trypanosoma brucei rhodesiense", "OBS_VALUE": 4.11}
{"COMPOUND": "Oc1ccccc1-c1cnc(-c2cccc(O)c2O)s1", "TESTED_SYSTEM": "Trypanosoma brucei rhodesiense", "OBS_VALUE": 5.11}
{"COMPOUND": "Oc1ccccc1-c1nnc(-c2cccc(O)c2O)s1", "TESTED_SYSTEM": "Trypanosoma brucei rhodesiense", "OBS_VALUE": 5.36}
{"COMPOUND": "Oc1ccc(O)c(-c2cnc(-c3ccccc3)o2)c1", "TESTED_SYSTEM": "Trypanosoma brucei rhodesiense", "OBS_VALUE": 4.74}

# input for lookup
Entry `COc1ccc(-c2cnc(-c3cccc(OC)c3OC)o2)c(OC)c1` , tested on Trypanosoma brucei rhodesiense, has a reported pIC50 of 4.54
